What solubility was measured for each of the following?
assay: Solubility; settings: bovine, fetal bovine serum, plasma or biological fluid

q: Dear colleague, I am looking for the recorded solubility of the following compound: CCNC(C)Cc1cccc(C(F)(F)F)c1.Cl (racemic) [Fenfluramine Hydrochloride]
a: ~10 mM

q: Dear colleague, I am looking for the recorded solubility of the following compound: CC(N)C12CC3CC(CC(C3)C1)C2.Cl (centres unmarked) [Rimantadine Hydrochloride, 1-(1-Adamantyl)ethylamine hydrochloride]
a: ~10 mM
